Test: in vivo
Settings: BALB/c nude, mouse, in vivo, iv, total radioactivity, % ID/g Intestine
Reported property: tissue uptake at 24 h

1) CCCC[C@H](NC(=O)[C@H](Cc1c[nH]c2ccccc12)NC(=O)CNC(=O)[C@H](Cc1ccc(O)cc1)NC(=O)[C@H](C)NC(=O)[C@@H](CCC(=O)O)NC(=O)[C@@H](CCC(=O)O)NC(=O)[C@@H](CCC(=O)O)NC(=O)[C@@H](CCC(=O)O)NC(=O)[C@@H](CCC(=O)O)NC(=O)[C@@H](CCC(=O)O)NC(=O)CN1CCN(CC(=O)O)CCN(CC(=O)O)CCN(CC(=O)O)CC1)C(=O)N[C@@H](CC(=O)O)C(=O)N[C@@H](Cc1ccccc1)C(N)=O [^177Lu-C-2, metal not drawn, reference compound] | 0.05 %ID/g
